tested on: CCRF-CEM leukemia; assay: NCI tumour cell line growth inhibition, 48 h
Property Measured: TGI

>  <Compound>
S=c1snc2n1CCN2

>  <TGI>
> 100 µM

$$$$

What value of measured TGI is listed for CN1CN(c2ccccc2)C2(CCN(CC(C)(c3ccc(F)cc3)C3OCCCO3)CC2)C1=O (stereo not given) ? 45.9 µM

What value of measured TGI is listed for Cc1ccc(SC2C(=O)C3CC(OCc4ccccc4)C2(C)C3(C)C)cc1 (stereo not given) ? > 100 µM

What value of measured TGI is listed for CC(=O)N/N=C1\CC(C)(C)C2CCC1C2 (stereo not given) ? > 100 µM

What value of measured TGI is listed for Nc1nc(Cl)c(N)c(NCC2(CO)CC2)n1 ? > 100 µM

What value of measured TGI is listed for CC1=C[C@H]2c3c([nH]c4ccccc34)C(c3c[nH]c4ccccc34)[C@H]2CC1 (stereo not given in full) ? 10.9 µM

What value of measured TGI is listed for CCCCCCCCCCCCCCCCCC1=NC(C)(C)CN1CC(C)O (stereo not given) ? 7.39 µM

What value of measured TGI is listed for O=C(Cc1nc2ccccc2c(=O)n1-c1ccccc1Cl)c1ccncc1 ? > 100 µM

What value of measured TGI is listed for CCOC(=O)c1sc(-c2ccc(OS(=O)(=O)c3ccccc3[N+](=O)[O-])c(C=O)c2)nc1C ? 4.49 µM

What value of measured TGI is listed for COc1ccc2nc(-c3ccccc3)cc(OCC(=O)O)c2c1 ? > 100 µM
